Test: Pharmacokinetic interaction study, fexuprazan and celecoxib
Type: in vivo, healthy Korean male subjects
Settings: male, human, plasma, po, 200 mg, V ss/F, monotherapy: celecoxib 200 mg BID, 5 days, Arm A; mean ± SD
Assay Endpoint: Vd/F
Express your answer as a number followed by its unit.

In: Need Vd/F, item Cc1ccc(-c2cc(C(F)(F)F)nn2-c2ccc(S(N)(=O)=O)cc2)cc1 [Celecoxib]
Out: 416 L

* * *

Assay: Pharmacokinetic interaction study, fexuprazan and celecoxib
Type: in vivo, healthy Korean male subjects
Details: male, human, plasma, po, 200 mg, T max,ss, combination: celecoxib 200 mg BID + fexuprazan 40 mg BID, 5 days, Arm A; median [minimum–maximum]
Assay Endpoint: Tmax (h)
Numeric answer only, unit h assumed.

In: What Tmax value was documented for this compound, Cc1ccc(-c2cc(C(F)(F)F)nn2-c2ccc(S(N)(=O)=O)cc2)cc1 ?
Out: 3
